Tested on: UACC-257 melanoma
Assay: NCI tumour cell line growth inhibition, 48 h; in the data active means GI50 below about 0.43 µM; inactive means the rest
Choose one outcome from this list and give only that: active, inactive

Answered examples (5):
molecule	measured.on	class.label
COc1cc(-c2cc(-c3nc4ccccc4[nH]3)[nH]n2)cc(OC)c1OC	UACC-257 melanoma	inactive
N#CC(C#N)=CN1CCN(C(=O)c2ccccc2)C1=S	UACC-257 melanoma	inactive
CC1(C)N=C(N)N=C(N)N1c1cccc(CCCCc2ccc(S(=O)(=O)F)cc2Cl)c1	UACC-257 melanoma	inactive
Cc1ccc(C(=O)N/N=C/c2cccc(Oc3ccccc3)c2)cn1	UACC-257 melanoma	inactive
COc1cccc(/C=C/C(=O)c2cc3c(N)c(C(=O)Nc4cccc(Cl)c4C)sc3nc2C)c1	UACC-257 melanoma	inactive

Which result was noted for this molecule in the test: "CCCCC(=O)[O-].N.N.N.N.N.[Co+3].[O-][Cl+3]([O-])([O-])[O-]" inactive

Which result was noted for this molecule in the test: "O=C(Nc1ccncc1)C(=O)c1cn(S(=O)(=O)c2ccccc2F)c2ccccc12" inactive

Which result was noted for this molecule in the test: "CN1CCN(Cc2ccc(NC(=O)c3[nH]ncc3Nc3ncnc4c3CCC4)cc2)CC1" inactive

Which result was noted for this molecule in the test: "c1ccc2[nH]c(-c3ccc(OCCCCCOc4ccc(-c5nc6ccccc6[nH]5)cc4)cc3)nc2c1" inactive

Which result was noted for this molecule in the test: "NC(=NC1CCCCCC1)c1ccc(N2CCN(c3ccc(C(N)=NC4CCCCCC4)cc3)CC2)cc1" inactive

Which result was noted for this molecule in the test: Clc1cc(Cl)cc(N2N=C(c3cccc(Nc4ccncc4)c3)CC2c2ccc(Br)cc2)c1 (stereo unspecified) inactive

Which result was noted for this molecule in the test: "O=C(Nc1ccc(Nc2ccncc2)cc1)c1ccc(Nc2ccnc3ccc([N+](=O)[O-])cc23)cc1" inactive

Which result was noted for this molecule in the test: "C[C@@H]1CCN(C(=O)CC#N)C[C@@H]1N(C)c1ncnc2[nH]ccc12" inactive

Which result was noted for this molecule in the test: "COc1cc(-c2cn(-c3ccc(Cl)cc3)c(=O)[nH]2)cc(OC)c1OC" inactive

Which result was noted for this molecule in the test: "Fc1ccc(-c2nnc3sc(-c4cccc(Cl)c4)nn23)cc1Cl" inactive

----------
Test system: SW-620 colon
Assay: NCI tumour cell line growth inhibition, 48 h; in the data active means GI50 below about 0.43 µM; inactive means the rest
Choose one outcome from this list and give only that: T (active), F (inactive)

smiles.representation	class.label
O=C(Nc1ccc(Nc2ccncc2)cc1)c1ccc(Nc2ccnc3ccc([N+](=O)[O-])cc23)cc1	F
COc1cc(-c2cc(-c3nc4ccccc4[nH]3)[nH]n2)cc(OC)c1OC	F
C[C@@H]1CCN(C(=O)CC#N)C[C@@H]1N(C)c1ncnc2[nH]ccc12	F
C=C(CN1CCN(c2ccccc2F)CC1)c1ccc(C(=O)Nc2ccccc2N)cc1	F
C#CC[C@H](c1nc2cc(Cl)ccc2c(=O)n1Nc1ccccc1)N(CCCN)C(=O)c1cccc(Cl)c1F	T

Which result was noted for this compound in the test: "CCc1nc2ccc(Cc3ccc(C(=O)NO)cc3)cc2c(=O)n1CCc1ccccc1" T

Which result was noted for this compound in the test: "COc1ccc(C(=O)/C=C/c2cc(C(=O)c3cc(OC)c(OC)c(OC)c3)ccc2OC)cc1" F

Which result was noted for this compound in the test: "Cn1c2ccccc2c2nnc(N/N=C/c3ccccn3)nc21" F

Which result was noted for this compound in the test: "Cc1cc(N/N=C/c2nc(-c3ccccc3)oc2C)c2cc(Cl)ccc2n1" F
